Reference for the values: PubChem BioAssay (EPA / NIEHS)

- test description: CEETOX_H295R_MTT_cell_viability: Viability Assessment in the CeeTox HT-H295R MTT Assay (AID 2283718)
Activity calls are given as the source filed them. How the source made its calls: active means hit-call score of the fitted dose curve at least 0.9, where 1 is the maximum; inactive means score below 0.9.
measure name: outcome

molecular string | measure name | measured
CN(C)C(=O)NC1(c2ccccc2)CCN(CCC[C@]2(c3ccc(Cl)c(Cl)c3)CCCN(C(=O)c3ccccc3)C2)CC1 | outcome | inactive
Cc1cc(Cc2ccc(N)c(C)c2)ccc1N | outcome | inactive
Oc1ccc(O)cc1 | outcome | inactive

###

- System: DIO3 (gene 1735)
- test description: CCTE_GLTED_hDIO3: CCTE's human Deiodinase 3 (DIO3) Inhibition Assay, Great Lakes Toxicology and Ecology Division (GLTED) Lab (AID 2284055)
Active and inactive are the calls of the source. How the source made its calls: active means hit-call score of the fitted dose curve at least 0.9, where 1 is the maximum; inconclusive means response in the unintended direction; inactive means score below 0.9.
Allowed answers: active, inactive

Look over these answered cases.
compound | class assignment
Cc1c(C)c2c(c(C)c1O)CCC(C)(COc1ccc(CC3SC(=O)NC3=O)cc1)O2 (configuration not stated) | active
CC(=O)O[C@]1(C(C)=O)CC[C@H]2[C@@H]3C=C(Cl)C4=CC(=O)[C@@H]5C[C@@H]5[C@]4(C)[C@H]3CC[C@@]21C | active
O=Cc1ccccc1C=O | active
CN(C)CCCN1c2ccccc2Sc2ccc(Cl)cc21 | active
CCCCCCCCCCCCCCCCO | inactive

*Q* Tell me the assay call for CCCCCCCCCCCCCCOS(=O)(=O)O please.
*A* active

*Q* Tell me the assay call for S=c1[nH]c2ccccc2s1 please.
*A* active

###

- Read-out: Potassium channel subfamily K member 1 (KCNK1), KCNK1 (gene 3775)
- test description: LTEA_HepaRG_KCNK1: Life Technologies and Expression Analysis (LTEA) Assay for Potassium channel subfamily K member 1 (KCNK1) using HepaRG (AID 2283511)
- test settings: mRNA level, 48 h; actives raise or lower the signal
Calls of active or inactive are those of the source. The calls were made as follows: active = hit-call score of the fitted dose curve at least 0.9, where 1 is the maximum; inactive = score below 0.9.
Allowed answers: TRUE = active, FALSE = inactive

molecule | class assignment
c1ccc2occc2c1 | FALSE
CN(C)C(=O)NC1(c2ccccc2)CCN(CCC[C@]2(c3ccc(Cl)c(Cl)c3)CCCN(C(=O)c3ccccc3)C2)CC1 | TRUE
CC(C)(C)c1ccccc1 | FALSE
CC1=C(C)S(=O)(=O)CCS1(=O)=O | FALSE
CC(C)NCC(O)c1ccc(O)c(O)c1 (configuration not stated) | FALSE
CCc1nc(N)nc(N)c1-c1ccc(Cl)cc1 | FALSE

*Q* Tell me the assay call for CCCCCCCCCCCCCCCCO please.
*A* FALSE

###

- Read-out: Bcl-2 (BAX) gene, BAX (gene 581)
- test description: LTEA_HepaRG_BAX: Life Technologies and Expression Analysis (LTEA) Assay for Bcl-2 (BAX) gene using HepaRG (AID 2283470)
- test settings: mRNA level, 48 h; actives raise or lower the signal
Activity calls are given as the source filed them. Rule for the calls: active = hit-call score of the fitted dose curve at least 0.9, where 1 is the maximum; inactive = score below 0.9.
Allowed answers: YES for active, NO for inactive

Look over these answered cases.
compound | class assignment
CO[C@@H]1COCC[C@@H]1N[C@@H]1CC[C@@](C(=O)N2CCc3ncc(C(F)(F)F)cc3C2)(C(C)C)C1 | NO
Cc1c(C)c2c(c(C)c1O)CCC(C)(COc1ccc(CC3SC(=O)NC3=O)cc1)O2 (configuration not stated) | YES
CCCCC(CC)COP(=O)(OCC(CC)CCCC)OCC(CC)CCCC (configuration not stated) | NO
CC1=C(C)S(=O)(=O)CCS1(=O)=O | YES
CCCCC(CC)COC(=O)CCCCCCCC(=O)OCC(CC)CCCC (configuration not stated) | NO
CCCCCCCCCC[N+](C)(C)[O-] | NO

*Q* Tell me the assay call for O=C1O[C@H]([C@H](O)CO)C(O)=C1O please.
*A* NO

*Q* Tell me the assay call for CC(C)OC(=O)C(C)(C)Oc1ccc(C(=O)c2ccc(Cl)cc2)cc1 please.
*A* NO

*Q* Tell me the assay call for O=C1NC(=O)C(c2ccccc2)(c2ccccc2)N1 please.
*A* NO

*Q* Tell me the assay call for CC(=O)OC1CC(C)OC(C)O1 (configuration not stated) please.
*A* NO

*Q* Tell me the assay call for CC(N)=O please.
*A* NO

*Q* Tell me the assay call for CCCCc1nc2cccnc2n1Cc1ccc(-c2ccccc2-c2nnn[nH]2)cc1 please.
*A* NO

###

- experimental system: AR (gene 367) (UniProt P10275)
- Sequence (P10275 whole entry, looked up): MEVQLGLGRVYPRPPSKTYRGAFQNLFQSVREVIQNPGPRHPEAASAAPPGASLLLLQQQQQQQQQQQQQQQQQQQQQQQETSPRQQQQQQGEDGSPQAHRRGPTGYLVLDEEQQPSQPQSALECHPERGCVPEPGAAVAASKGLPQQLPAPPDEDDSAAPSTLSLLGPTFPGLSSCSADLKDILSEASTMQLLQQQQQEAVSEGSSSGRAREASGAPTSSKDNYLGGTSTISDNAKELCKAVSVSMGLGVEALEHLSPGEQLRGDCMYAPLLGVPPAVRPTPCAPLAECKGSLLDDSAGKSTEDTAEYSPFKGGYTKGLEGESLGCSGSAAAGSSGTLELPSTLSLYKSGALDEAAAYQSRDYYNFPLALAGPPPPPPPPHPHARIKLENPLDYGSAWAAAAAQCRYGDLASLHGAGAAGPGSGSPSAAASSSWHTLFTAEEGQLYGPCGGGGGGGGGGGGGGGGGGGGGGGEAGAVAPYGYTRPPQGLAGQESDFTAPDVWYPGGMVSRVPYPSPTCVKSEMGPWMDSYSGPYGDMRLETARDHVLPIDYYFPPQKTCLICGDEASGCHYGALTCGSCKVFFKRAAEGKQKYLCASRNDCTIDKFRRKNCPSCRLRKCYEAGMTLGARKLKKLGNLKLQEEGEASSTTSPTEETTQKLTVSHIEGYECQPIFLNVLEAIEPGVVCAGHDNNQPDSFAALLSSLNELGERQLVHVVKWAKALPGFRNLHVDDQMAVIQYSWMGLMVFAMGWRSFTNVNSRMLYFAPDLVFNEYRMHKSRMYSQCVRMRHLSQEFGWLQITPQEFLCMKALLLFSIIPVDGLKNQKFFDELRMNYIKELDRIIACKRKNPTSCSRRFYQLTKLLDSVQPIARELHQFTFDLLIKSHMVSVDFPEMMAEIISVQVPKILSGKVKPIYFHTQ
- test description: ACEA_AR_antagonist_80hr: ACEA Biosciences xCELLigence Real-Time Cell Analysis on Androgen Receptor Antagonism for Proliferation (AID 2283787);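 further: 22Rv1 human prostate cancer cells with growth followed by electrical impedance; hits lower the impedance growth signal relative to DMSO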
- Method: ACEA_AR_antagonist is a cell-based, single-readout assay that uses 22Rv1, a human prostate cancer cell line, with measurements taken at 80 hours after chemical dosing in a 384-well plate, although TO5 and TO6 (mc0.srcf) used a 96-well plate. Differences in plate size can be ignored given data normalization.ACEA_AR_antagonist_80hr is one of two assay component(s) measured or calculated from the ACEA_AR assay. […]
Inconclusive results are not listed. Calls of active or inactive are those of the source. Rule for the calls: active = hit-call score of the fitted dose curve at least 0.9, where 1 is the maximum; inconclusive = response in the unintended direction; inactive = score below 0.9.
Allowed answers: 1 (active), -1 (inactive)

Look over these answered cases.
molecule | experimental system | class assignment
Cc1ccc(-c2cc(C(F)(F)F)nn2-c2ccc(S(N)(=O)=O)cc2)cc1 | AR (gene 367) (UniProt P10275) | 1
O=C(NS(=O)(=O)/C=C/c1cccs1)c1ccc(F)cc1Br | AR (gene 367) (UniProt P10275) | 1

*Q* Tell me the assay call for Cc1c(C)c2c(c(C)c1O)CCC(C)(COc1ccc(CC3SC(=O)NC3=O)cc1)O2 (centres undefined) please.
*A* 1

*Q* Tell me the assay call for O=C(Oc1ccccc1)c1cccc(C(=O)Oc2ccccc2)c1 please.
*A* -1

###

- System: TTR (gene 7276)
- test description: CCTE_GLTED_hTTR_0.125uM: CCTE's human Transthyretin (hTTR) Inhibition Assay, with 0.125uM TTR, Great Lakes Toxicology and Ecology Division (GLTED) Lab (AID 2284431);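 further: hits lower the fluorescence signal relative to DMSO baseline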
Active and inactive are the calls of the source. How the source made its calls: active means hit-call score of the fitted dose curve at least 0.9, where 1 is the maximum; inactive means score below 0.9.
Please provide measured AC50 for the entries that follow.

compound | AC50
Cc1cc(Cc2ccc(N)c(C)c2)ccc1N | 9.71 µM (active)

Answer for every listed entry: what is its AC50? The entries follow.
1. O=C(O)c1[nH]n(-c2ccc(S(=O)(=O)O)cc2)c(=O)c1N=Nc1ccc(S(=O)(=O)O)cc1
2. CCCCc1nc2cccnc2n1Cc1ccc(-c2ccccc2-c2nnn[nH]2)cc1
3. CCCCCCCCCCCCCCOS(=O)(=O)O
4. CCC(C)N(C)C(=O)c1cc2ccccc2c(-c2ccccc2Cl)n1 (configuration not stated)

*A*
1: 17.8 µM (active); 2: 7.22 µM (active); 3: 1.9 µM (active); 4: 27.1 µM (active)

Answer for every listed entry: what is its AC50? The entries follow.
1. O=C1c2c(O)cccc2Cc2cccc(O)c21
2. O=C(NS(=O)(=O)/C=C/c1cccs1)c1ccc(F)cc1Br

*A*
1. 22 µM (active)
2. 7.75 µM (active)

###

- Read-out: ABC Transporter (ABCB11), ABCB11 (gene 8647)
- test description: LTEA_HepaRG_ABCB11: Life Technologies and Expression Analysis (LTEA) Assay for ABC Transporter (ABCB11) using HepaRG (AID 2283463)
- test settings: mRNA level, 48 h; actives raise or lower the signal
Active and inactive are the calls of the source. The calls were made as follows: active = hit-call score of the fitted dose curve at least 0.9, where 1 is the maximum; inactive = score below 0.9.
Allowed answers: 1 (yes) = active, 0 (no) = inactive

Look over these answered cases.
compound | class assignment
OCC(CO)n1cnc(-c2ccc(F)cc2)c1-c1ccnc(Oc2ccccc2)n1 | 0 (no)
CC(C)(C)c1ccccc1 | 0 (no)
C#CC(O)C(CC)CCCC (configuration not stated) | 0 (no)
Oc1ccc(O)cc1 | 0 (no)
O=C1CCCCC1 | 0 (no)
COC(=O)[C@H]1[C@H]2C[C@@H]3c4[nH]c5cc(OC)ccc5c4CCN3C[C@H]2C[C@@H](OC(=O)c2cc(OC)c(OC)c(OC)c2)[C@@H]1OC | 1 (yes)

*Q* Tell me the assay call for O=C1O[C@H]([C@H](O)CO)C(O)=C1O please.
*A* 0 (no)

*Q* Tell me the assay call for COC(=O)CCC(=O)OC please.
*A* 0 (no)

*Q* Tell me the assay call for CN(C)C(=O)NC1(c2ccccc2)CCN(CCC[C@]2(c3ccc(Cl)c(Cl)c3)CCCN(C(=O)c3ccccc3)C2)CC1 please.
*A* 1 (yes)

*Q* Tell me the assay call for CCCCCCCCCC[N+](C)(C)[O-] please.
*A* 0 (no)

*Q* Tell me the assay call for C/C=C/c1ccc(OC)cc1 please.
*A* 0 (no)

*Q* Tell me the assay call for Nc1nc(Cl)nc2c1ncn2[C@H]1C[C@H](O)[C@@H](CO)O1 please.
*A* 1 (yes)

###

- experimental system: human CYP2C9, CYP2C9 (gene 1559) (UniProt P11712)
- Sequence (P11712 whole entry, looked up): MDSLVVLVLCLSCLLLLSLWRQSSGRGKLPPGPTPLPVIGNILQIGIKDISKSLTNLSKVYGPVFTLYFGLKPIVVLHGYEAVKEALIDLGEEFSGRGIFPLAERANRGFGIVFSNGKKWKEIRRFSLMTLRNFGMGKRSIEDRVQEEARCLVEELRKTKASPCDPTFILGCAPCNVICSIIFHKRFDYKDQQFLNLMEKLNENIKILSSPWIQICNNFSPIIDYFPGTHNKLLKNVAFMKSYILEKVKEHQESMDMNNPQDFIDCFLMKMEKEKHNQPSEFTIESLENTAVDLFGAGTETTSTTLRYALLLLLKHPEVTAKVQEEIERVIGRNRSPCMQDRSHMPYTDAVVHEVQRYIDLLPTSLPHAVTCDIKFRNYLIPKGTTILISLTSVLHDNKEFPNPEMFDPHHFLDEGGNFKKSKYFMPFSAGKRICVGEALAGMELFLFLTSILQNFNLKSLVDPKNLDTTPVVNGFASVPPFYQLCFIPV
- test description: NVS_ADME_hCYP2C9: NovaScreen (NVS) CYP450-related Enzyme Activity (ADME) Assay for human CYP2C9 (AID 2283108)
- Description: NVS_ADME_hCYP2C9 is a biochemical, single-readout assay that uses extracted gene-proteins from SF9 in a cell-free assay. Measurements were taken 0.75 hour after chemical dosing in a 96-well plate.NVS_ADME_hCYP2C9 is one of one assay component(s) measured or calculated from the NVS_ADME_hCYP2C9 assay. […] This assay endpoint, NVS_ADME_hCYP2C9, was analyzed in the positive analysis fitting direction relative to Acetonitrile as the negative control and baseline of activity. […]
Inconclusive results are not listed. The source made the active and inactive calls. The calls were made as follows: active = hit-call score of the fitted dose curve at least 0.9, where 1 is the maximum; inconclusive = response in the unintended direction; inactive = score below 0.9.
Allowed answers: active, inactive

Look over these answered cases.
molecule | experimental system | class assignment
Cc1ccc(-c2cc(C(F)(F)F)nn2-c2ccc(S(N)(=O)=O)cc2)cc1 | human CYP2C9, CYP2C9 (gene 1559) (UniProt P11712) | active
Cc1c(C)c2c(c(C)c1O)CCC(C)(COc1ccc(CC3SC(=O)NC3=O)cc1)O2 (configuration not stated) | human CYP2C9, CYP2C9 (gene 1559) (UniProt P11712) | inactive
CC(C)OC(=O)C(C)(C)Oc1ccc(C(=O)c2ccc(Cl)cc2)cc1 | human CYP2C9, CYP2C9 (gene 1559) (UniProt P11712) | inactive

*Q* Tell me the assay call for O=C1OC(c2ccc(O)cc2)(c2ccc(O)cc2)c2ccccc21 please.
*A* active

*Q* Tell me the assay call for CCCCc1nc2cccnc2n1Cc1ccc(-c2ccccc2-c2nnn[nH]2)cc1 please.
*A* active

*Q* Tell me the assay call for S=c1[nH]c2ccccc2s1 please.
*A* active

*Q* Tell me the assay call for CCc1cc(C2=C(C(=O)O)N(c3ccccc3C(F)(F)F)S(=O)(=O)c3ccccc32)cc2c1OCO2 please.
*A* inactive
